# experimental-target: T1, soluble EpoR (EposR) (human, UniProt P19235 25-250, limits assumed)
# T1 construct: also called soluble recombinant human EpoR
# T1 sequence (looked up): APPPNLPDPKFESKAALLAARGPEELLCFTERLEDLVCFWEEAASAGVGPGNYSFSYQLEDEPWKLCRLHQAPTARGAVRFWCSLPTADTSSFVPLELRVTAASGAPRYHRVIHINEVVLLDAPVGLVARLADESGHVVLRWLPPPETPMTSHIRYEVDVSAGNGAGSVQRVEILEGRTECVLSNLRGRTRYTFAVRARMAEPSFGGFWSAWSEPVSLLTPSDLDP
# protocol-text: SPR (BIAcore), IgG2/K sub-variant of Ab12.6, EposR as test antigen
measurement-kind: kon (M⁻¹ s⁻¹)
Please state the figure in M⁻¹ s⁻¹; there is no need to write the unit.

Request: # query: kon of entry Ab12.123 (antibody, IgG2, V domains shown) VH: QVQLQESGPGLVKPSETLSLTCTVSGASISSYYWSWIRQPPGKGLEWIGYIGYEGSTNYNPSLKSRVTISVDTSKNQFSLKLRSVTAADTAVYYCARERLGIGDYWGQGTLVTVSS VL: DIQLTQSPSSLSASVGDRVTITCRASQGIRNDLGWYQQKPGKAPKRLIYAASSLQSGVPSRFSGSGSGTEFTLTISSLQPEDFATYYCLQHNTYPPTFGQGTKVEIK
Result: 130000

Request: # query: kon of entry Ab12.118 (antibody, IgG2, V domains shown) VH: QVQLQESGPGLVKPSETLSLTCTVSGASISSYYWSWIRQPPGKGLEWIGYIGYSGSTNYNPSLKSRVTISVDTSKNQFSLKLRSVTAADTAVYYCARERLGIGDYWGQGTLVTVSS VL: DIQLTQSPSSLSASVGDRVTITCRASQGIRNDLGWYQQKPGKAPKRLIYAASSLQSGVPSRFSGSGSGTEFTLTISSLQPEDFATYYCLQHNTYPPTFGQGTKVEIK
Result: 250000

Request: # query: kon of entry Ab12.122 (antibody, IgG2, V domains shown) VH: QVQLQESGPGLVKPSETLSLTCTVSGASISSYYWSWIRQPPGKGLEWIGYIYGEGSTNYNPSLKSRVTISVDTSKNQFSLKLRSVTAADTAVYYCARERLGIGDYWGQGTLVTVSS VL: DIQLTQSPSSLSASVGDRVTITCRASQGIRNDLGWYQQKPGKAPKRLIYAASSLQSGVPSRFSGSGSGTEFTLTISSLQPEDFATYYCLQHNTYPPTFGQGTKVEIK
Result: 220000
